# tested_target: GSPT1 (Homo sapiens, UniProt P15170+Q96SW2)
# Sequence (P15170 whole entry): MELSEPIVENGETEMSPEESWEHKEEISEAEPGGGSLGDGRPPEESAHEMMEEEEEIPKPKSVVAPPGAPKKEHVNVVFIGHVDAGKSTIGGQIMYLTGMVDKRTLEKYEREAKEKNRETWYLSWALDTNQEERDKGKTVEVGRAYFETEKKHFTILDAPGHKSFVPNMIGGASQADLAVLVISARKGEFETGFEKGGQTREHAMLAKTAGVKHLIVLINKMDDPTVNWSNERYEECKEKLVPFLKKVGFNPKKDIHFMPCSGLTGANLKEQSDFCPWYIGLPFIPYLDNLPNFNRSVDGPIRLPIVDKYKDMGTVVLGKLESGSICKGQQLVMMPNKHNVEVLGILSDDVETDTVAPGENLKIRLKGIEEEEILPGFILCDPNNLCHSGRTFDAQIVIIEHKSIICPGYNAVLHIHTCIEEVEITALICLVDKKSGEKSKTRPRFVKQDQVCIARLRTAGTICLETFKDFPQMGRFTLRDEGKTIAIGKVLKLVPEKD
# Sequence (Q96SW2 whole entry): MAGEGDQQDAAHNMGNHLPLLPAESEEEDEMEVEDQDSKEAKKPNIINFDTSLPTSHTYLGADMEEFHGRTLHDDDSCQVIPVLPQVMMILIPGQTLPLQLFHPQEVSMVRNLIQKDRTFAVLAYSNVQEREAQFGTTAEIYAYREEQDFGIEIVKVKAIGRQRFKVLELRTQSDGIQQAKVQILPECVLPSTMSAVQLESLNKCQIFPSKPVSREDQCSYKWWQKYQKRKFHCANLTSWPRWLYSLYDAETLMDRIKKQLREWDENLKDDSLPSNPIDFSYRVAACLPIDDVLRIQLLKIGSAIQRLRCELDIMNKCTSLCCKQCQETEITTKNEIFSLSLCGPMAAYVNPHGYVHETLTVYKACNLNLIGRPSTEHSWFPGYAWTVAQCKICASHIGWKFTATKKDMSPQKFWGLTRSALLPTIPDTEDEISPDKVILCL
# Sequence (Q16531 whole entry partner): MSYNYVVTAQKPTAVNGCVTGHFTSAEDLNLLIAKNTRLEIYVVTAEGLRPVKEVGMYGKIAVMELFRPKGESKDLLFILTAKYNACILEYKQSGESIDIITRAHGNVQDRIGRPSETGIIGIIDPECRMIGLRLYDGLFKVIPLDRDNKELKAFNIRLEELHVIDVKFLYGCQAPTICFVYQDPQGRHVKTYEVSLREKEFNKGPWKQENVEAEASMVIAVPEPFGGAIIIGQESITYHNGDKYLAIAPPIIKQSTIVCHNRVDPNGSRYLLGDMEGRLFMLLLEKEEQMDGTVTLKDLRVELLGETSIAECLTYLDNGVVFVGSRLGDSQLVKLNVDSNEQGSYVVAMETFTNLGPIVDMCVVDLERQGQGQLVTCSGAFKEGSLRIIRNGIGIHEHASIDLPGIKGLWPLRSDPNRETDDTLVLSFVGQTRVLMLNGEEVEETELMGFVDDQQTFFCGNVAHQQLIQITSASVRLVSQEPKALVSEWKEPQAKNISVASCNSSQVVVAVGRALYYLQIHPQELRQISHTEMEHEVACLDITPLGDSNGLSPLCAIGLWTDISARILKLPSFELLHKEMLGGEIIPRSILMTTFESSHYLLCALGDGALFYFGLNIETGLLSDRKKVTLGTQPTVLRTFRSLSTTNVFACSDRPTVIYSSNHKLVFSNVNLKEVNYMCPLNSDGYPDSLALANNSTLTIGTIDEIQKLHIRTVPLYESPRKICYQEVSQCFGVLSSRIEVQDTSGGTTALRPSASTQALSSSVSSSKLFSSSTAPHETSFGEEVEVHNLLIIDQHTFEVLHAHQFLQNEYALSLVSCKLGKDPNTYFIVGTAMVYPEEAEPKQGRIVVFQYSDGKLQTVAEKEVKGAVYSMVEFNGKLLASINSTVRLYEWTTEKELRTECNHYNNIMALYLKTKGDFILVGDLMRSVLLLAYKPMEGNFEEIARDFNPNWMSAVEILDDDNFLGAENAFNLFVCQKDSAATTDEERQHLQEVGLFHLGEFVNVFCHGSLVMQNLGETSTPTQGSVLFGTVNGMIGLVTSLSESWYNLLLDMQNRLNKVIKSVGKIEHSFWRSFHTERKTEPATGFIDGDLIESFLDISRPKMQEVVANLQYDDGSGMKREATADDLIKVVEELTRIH
# test_method_notes: GSPT1 Cellular Degradation Assay (DF15-GSPT1-ePL)
# Assay type: cell-based
# Set-up: expressed in transfected cells
# assay_setup: DF15-GSPT1-ePL cells, 20 hours
measurement_type: Dmax (%)

Below: 5 compounds and their reported Dmax.
COc1c(COC(=O)Nc2ccc(Oc3cc(F)c(F)cc3C)cc2)ccc2c1C(=O)N(C1CCC(=O)NC1=O)C2 (centres unmarked) [Example 78] : 2
COc1c(COC(=O)Nc2ccc(Oc3cc(F)c(F)c(F)c3)cc2F)ccc2c1C(=O)N(C1CCC(=O)NC1=O)C2 (centres unmarked) [Example 15] : 48
COc1c(COC(=O)Nc2ccc(Oc3ccc(F)c(F)c3)cc2F)ccc2c1C(=O)N(C1CCC(=O)NC1=O)C2 (centres unmarked) [Example 23] : 27
COc1c(COC(=O)Nc2ccc(Cc3ccc(F)c(F)c3)cc2)ccc2c1C(=O)N(C1CCC(=O)NC1=O)C2 (centres unmarked) [Example 17] : 15
O=C1CCC(N2Cc3ccc(COC(=O)Nc4ccc(Oc5ccc(F)c(F)c5)cc4)c(OC(F)F)c3C2=O)C(=O)N1 (centres unmarked) [Example 61] : 22

a = COc1c(COC(=O)Nc2ccc(Oc3cccc(F)c3F)cc2F)ccc2c1C(=O)N(C1CCC(=O)NC1=O)C2 (centres unmarked) [Example 22]
b = COc1c(COC(=O)Nc2ccc(Oc3ccc(F)cc3C)cc2)ccc2c1C(=O)N(C1CCC(=O)NC1=O)C2 (centres unmarked) [Example 81]
Looking at a and b , which one comes out lower in Dmax terms? Refer to your chosen item by its label in the answer.
b

1 = COc1c(COC(=O)Nc2ccc(Oc3cccc(F)c3)cc2F)ccc2c1C(=O)N(C1CCC(=O)NC1=O)C2 (centres unmarked) [Example 16]
2 = COc1c(COC(=O)Nc2ccc(Cc3ccc(F)c(F)c3)cc2C)ccc2c1C(=O)N(C1CCC(=O)NC1=O)C2 (centres unmarked) [Example 18]
3 = COc1cc(Oc2ccc(F)cc2)ccc1NC(=O)OCc1ccc2c(c1OC)C(=O)N(C1CCC(=O)NC1=O)C2 (centres unmarked) [Example 37]
Sort (3 compounds) by Dmax: min first. A ranking is expressed here by listing the labels in the requested order.
2, 3, 1

* * *

# tested_target: Cyclin E1 (Homo sapiens, UniProt P24864+Q96SW2)
# Sequence (P24864 whole entry): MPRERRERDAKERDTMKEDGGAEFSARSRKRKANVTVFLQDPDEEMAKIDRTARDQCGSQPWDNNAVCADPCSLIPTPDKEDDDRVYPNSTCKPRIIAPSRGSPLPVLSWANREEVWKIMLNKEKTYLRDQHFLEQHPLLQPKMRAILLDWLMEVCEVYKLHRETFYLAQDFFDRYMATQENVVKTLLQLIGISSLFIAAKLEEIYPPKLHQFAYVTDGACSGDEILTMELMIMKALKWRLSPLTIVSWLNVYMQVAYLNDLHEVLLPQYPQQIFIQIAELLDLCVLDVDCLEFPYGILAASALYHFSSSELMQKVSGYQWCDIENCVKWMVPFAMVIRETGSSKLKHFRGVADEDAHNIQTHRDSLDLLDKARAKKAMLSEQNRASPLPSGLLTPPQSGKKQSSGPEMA
# Sequence (Q96SW2 whole entry): as the sequence (Q96SW2 whole entry) above
# Sequence (Q16531 whole entry partner): as the sequence (Q16531 whole entry partner) above
# test_method_notes: Cyclin E1 Cellular Degradation Assay (MSD)
# Format: cell-based
# Set-up: endogenous in cells; host or cells: OVCAR3
# assay_setup: Cyclin E1 cellular degradation, maximum degradation
measurement_type: Dmax (%)

O=C1CCC(N2Cc3ccc(COC(=O)Nc4ccc(Oc5ccc(F)c(F)c5)cc4)c(Oc4ccccc4)c3C2=O)C(=O)N1 (stereo not shown) : 104
O=C1CCC(N2Cc3ccc(COC(=O)Nc4ccc(Oc5ccccc5)cc4)c(OC4CCOCC4)c3C2=O)C(=O)N1 (stereo not shown) : 107
COc1c(COC(=O)Nc2ccc(Oc3ccc(F)c(Cl)c3)cc2C)ccc2c1C(=O)N(C1CCC(=O)NC1=O)C2 (stereo not shown) : 110
COc1cc(Oc2ccc(F)cc2)ccc1NC(=O)OCc1ccc2c(c1OC)C(=O)N(C1CCC(=O)NC1=O)C2 (stereo not shown) : 102

* * *

# tested_target: Cyclin E1 (Homo sapiens, UniProt P24864+Q96SW2)
# test_method_notes: Cyclin E1 Cellular Degradation Assay (MSD)
# Assay type: cell-based
# Set-up: endogenous in cells; host or cells: OVCAR3
# assay_setup: selectivity for degradation of Cyclin E1 over GSPT1
measurement_type: Ratio of GSPT1 DC50/Cyclin E1 DC50

Below: 10 molecules and their reported Ratio of GSPT1 DC50/Cyclin E1 DC50.
COc1c(COC(=O)Nc2ccc(Oc3cc(F)c(F)cc3F)cc2C)ccc2c1C(=O)N(C1CCC(=O)NC1=O)C2 (stereo not drawn) [Example 45] : >108
NC(=O)COc1c(COC(=O)Nc2ccc(Oc3ccc(F)c(F)c3)cc2)ccc2c1C(=O)N(C1CCC(=O)NC1=O)C2 (stereo not drawn) [Example 176] : >78
COc1c(COC(=O)Nc2ccc(Oc3ccccc3C(F)F)cc2)ccc2c1C(=O)N(C1CCC(=O)NC1=O)C2 (stereo not drawn) [Example 85] : >77
COc1cc(Oc2cc(F)c(F)c(F)c2)ccc1NC(=O)OCc1ccc2c(c1OC)C(=O)N(C1CCC(=O)NC1=O)C2 (stereo not drawn) [Example 72] : >36
COc1c(COC(=O)Nc2ccc(Cc3ccc(F)c(F)c3)cc2)ccc2c1C(=O)N(C1CCC(=O)NC1=O)C2 (stereo not drawn) [Example 17] : >31
COc1c(COC(=O)Nc2ccc(Oc3cccc(F)c3)cc2Cl)ccc2c1C(=O)N(C1CCC(=O)NC1=O)C2 (stereo not drawn) [Example 27] : >151
[2H]C1([2H])C(=O)NC(=O)[C@@]([2H])(N2Cc3ccc(COC(=O)Nc4ccc(Oc5ccc(F)c(F)c5)cc4)c(OC)c3C2=O)C1([2H])[2H] [Example 180] : >233
COc1c(COC(=O)Nc2ccc(Oc3cc(C)cc(C)c3)cc2)ccc2c1C(=O)N(C1CCC(=O)NC1=O)C2 (stereo not drawn) [Example 12] : >171
COc1c(COC(=O)Nc2ccc(Oc3ccc(F)cc3F)cc2F)ccc2c1C(=O)N(C1CCC(=O)NC1=O)C2 (stereo not drawn) [Example 30] : >21
COc1c(COC(=O)Nc2ccc(Oc3cc(Cl)cc(Cl)c3)cc2F)ccc2c1C(=O)N(C1CCC(=O)NC1=O)C2 (stereo not drawn) [Example 118] : >34

Fill in: Ratio of GSPT1 DC50/Cyclin E1 DC50 of COc1c(COC(=O)Nc2ccc(Oc3ccc(F)c(C)c3)cc2F)ccc2c1C(=O)N(C1CCC(=O)NC1=O)C2 (stereo not drawn) [Example 99] is ___
>118

Please give the result for COc1c(COC(=O)Nc2ccc(Oc3c(F)cccc3F)cc2)ccc2c1C(=O)N(C1CCC(=O)NC1=O)C2 (stereo not drawn) [Example 112] too.
>62

Please give the result for O=C1CCC(N2Cc3ccc(COC(=O)Nc4ccc(Oc5ccccc5)cc4)c(OC(F)F)c3C2=O)C(=O)N1 (stereo not drawn) [Example 60] too.
>76

Please give the result for COc1cc(Oc2cc(F)c(F)cc2C)ccc1NC(=O)OCc1ccc2c(c1OC)C(=O)N(C1CCC(=O)NC1=O)C2 (stereo not drawn) [Example 73] too.
>45

Please give the result for COC(=O)COc1c(COC(=O)Nc2ccc(Oc3ccc(F)c(F)c3)cc2)ccc2c1C(=O)N(C1CCC(=O)NC1=O)C2 (stereo not drawn) [Example 174] too.
>69

Please give the result for COc1c(COC(=O)Nc2ccc(Oc3ccc(F)c(Cl)c3)cc2F)ccc2c1C(=O)N(C1CCC(=O)NC1=O)C2 (stereo not drawn) [Example 98] too.
>144

src = patent US20250084056A1
